FYI, the data here is from ChEMBL document CHEMBL1201862.

system: Malme-3M; test: NCI tumour cell line growth inhibition, 48 h
Activity calls are given as the source filed them. Rule as the data show it: active = GI50 up to about 1.1 µM and inactive = higher. Where a SMILES comes first, the peptide text is derived from it. [ ]: non-standard residue; d: D form. The star is where a group is joined. Chg = N[CH](C(=O)O)C1CCCCC1; Cbz = O=C(OCc1ccccc1)*; OBn = c1ccc(CO*)cc1
quantityKind: GI50

Worked examples, 2 compounds total:
compound	GI50
Cn1c2ccc(C3=NCCN3)cc2c2cc(C3=NCCN3)ccc21	18.2 µM (inactive)
COC(=O)C(NC(=O)C(CC(=O)OCc1ccccc1)NC(=O)OCc1ccccc1)C1CCCCC1 (centres undefined) (Cbz-Asp(OBn)-[Chg]-OMe; configuration not given here)	> 100 µM (inactive)

Give GI50 for each of the items listed below.
1. CCCCOC(=O)/C(CC(=O)C=C(C)C)=N\NS(=O)(=O)c1ccc(C)cc1
2. OC1=CN=COc2ccccc21
3. CC[C@@H](CCCCC1CC[C@H]2CC(=O)C[C@@H]12)OC (some centres undefined)
4. Cc1ccc(C2(C)CC/C(=N/N=C3/CCC(C)(c4ccc(C)c(C)c4)c4cc(C)c(C)cc43)c3cc(C)c(C)cc32)cc1C (centres undefined)
5. Cc1ccc(CN2CCN(Cc3ccc(C)o3)C(C)C2)o1 (centres undefined)
6. [N-]=[N+]=NC(c1ccccc1)(c1ccccc1)c1ccccc1

OUTPUT:
["> 100 µM (inactive)", "> 100 µM (inactive)", "> 100 µM (inactive)", "> 100 µM (inactive)", "> 100 µM (inactive)", "14.6 µM (inactive)"]

I'm hoping you can list GI50 for every compound here, please.
1. Cc1cc(C)n(C(=O)C(C)Sc2nnc(SC(C)C(=O)n3nc(C)cc3C)s2)n1 (centres undefined)
2. CC(C)c1ccc(Cc2ccc(C(C)C)c(NC(=O)C(=O)Cc3cnc4ccccc4n3)c2C(C)C)c(C(C)C)c1NC(=O)C(=O)Cc1cnc2ccccc2n1
3. CN(C)Cc1cc(C(=O)/C=C/c2ccc(Cl)cc2Cl)cc(CN(C)C)c1O
4. CC(=O)OC12CC[N+]3(C)CCCCC3C1=Nc1ccccc12 (centres undefined)
5. NNc1nnc(-c2ccccc2)nc1Cc1ccccc1
6. CC(=O)N(C(C)=O)c1c(N)n(C)c(=O)[nH]c1=O

OUTPUT:
1. > 100 µM (inactive)
2. > 100 µM (inactive)
3. 8.85 µM (inactive)
4. > 100 µM (inactive)
5. 3.56 µM (inactive)
6. > 100 µM (inactive)

For every record below, what is its GI50?
1. CC1=C(NC(=O)C(=O)NNC(=O)c2ccncc2)C(=O)c2ccccc2C1=O
2. NC12Oc3cc(O)cc(O)c3C1(c1ccc(Cl)cc1)c1c(O)cc(O)cc1O2 (centres undefined)
3. O=C1CC(Sc2nc3ccc(I)cc3c(=O)n2Cc2ccccc2)C(=O)NN1 (centres undefined)

OUTPUT:
5.26 µM (inactive)
40.6 µM (inactive)
18.1 µM (inactive)

Could I get GI50 for every one of these entries?
1. COc1cccc2c1-c1c(OC)cccc1SS2
2. COC(=O)[C@@]1(Cc2ccc(O)cc2)C[C@@H]2Cc3ccccc3N2N1
3. CCC1(O)C(=O)OCc2c1cc1n(c2=O)Cc2cc3ccc(CO)cc3nc2-1 (centres undefined)
4. O=C1CC2(CCN(CC3COc4ccccc4O3)CC2)C(=O)N1N1CCCCCC1 (centres undefined)
5. Cc1cc2nc(C=C(C(F)(F)F)C(F)(F)F)sc2cc1C
6. CC(=O)OCC1OC(NC(=O)N(CCCl)N=O)C(OC(C)=O)C(OC(C)=O)C1OC(C)=O (centres undefined)

OUTPUT:
18.1 µM (inactive)
49 µM (inactive)
4.53 µM (inactive)
94.4 µM (inactive)
1.44 µM (inactive)
> 100 µM (inactive)

INPUT: Would you kindly share the measured GI50 for CC12C(=O)N(CCN)C(=O)C1C1c3ccccc3C2c2ccccc21 (centres undefined) ?
OUTPUT: > 100 µM (inactive)

###

system: IGROV-1; assay: NCI tumour cell line growth inhibition, 48 h
Active and inactive are the calls of the source. Rule as the data show it: active = GI50 up to about 1.1 µM and inactive = higher.
Assign GI50 to each entry below.

Worked cases, answers included:
compound	reportedResult
CCOC(=O)C(C)(C)Oc1ccc2c(-c3ccc(Cl)cc3)cc(=O)oc2c1	> 100 µM (inactive)
Cc1cc(C)c(O)c(Cc2cccc(Cc3cc(C)cc(C)c3O)c2O)c1	> 100 µM (inactive)

List the reported GI50 of each compound below.
1. CC1(C(=O)Nc2ccc3ccccc3c2)CC2(C)CC(C)(C1)C(O)NC2=O (stereo not given)
2. C/C(=C\c1ccccc1)C(=O)c1c(C)cc(C)cc1C
3. N#Cc1c(N)sc2c1-c1ccccc1OC2

OUTPUT:
1: > 100 µM (inactive); 2: > 100 µM (inactive); 3: 49.7 µM (inactive)

###

Would you kindly list GI50 for each of these molecules?
test system: 786-0; experiment: NCI tumour cell line growth inhibition, 48 h
Activity calls are given as the source filed them. No stated cut-off is given here; in the data, active = GI50 up to about 1.1 µM and inactive = higher.

Solved cases (5 shown):
molecule	GI50
O=[N+]([O-])c1ccc(-c2cn(-c3ccc(Cl)cc3)cn2)cc1	16.6 µM (inactive)
C/C(=N\NC(=O)c1ccncc1)c1ccccc1Cl	> 100 µM (inactive)
Cn1c(=S)c2nc(SCCCc3ccccc3)[nH]c2n(C)c1=O	25.1 µM (inactive)
[N-]=[N+]=NC(c1ccccc1)(c1ccccc1)c1ccccc1	17.1 µM (inactive)
C[C@]12CC[C@@H]3c4ccc(OCC(=O)O)cc4CC[C@H]3[C@@H]1CCC2=O	> 100 µM (inactive)

Return reported GI50 values for all items listed beneath this line.
1. COc1ccc(/N=c2/oc3ccccc3cc2C(N)=O)cc1
2. Oc1cc(Cl)cc2cccnc12
3. CCOP(=O)(OCC)OC1c2[nH]ccc2-c2cc(C(=O)OC)[nH]c2C1OC (stereo not drawn)

OUTPUT:
["23.7 µM (inactive)", "8.71 µM (inactive)", "> 100 µM (inactive)"]

###

system: SR; experiment: NCI tumour cell line growth inhibition, 48 h
Activity calls are given as the source filed them. Cut-off read from the data, not from the text of the source: active = GI50 up to about 1.1 µM and inactive = higher.
Tick one outcome: True (active), False (inactive)

Check out these entries, answers already filled in.
compound	class
C=C1C[C@H](O)[C@H]2C(C[Se]c3ccccc3)C(=O)O[C@@H]2[C@H]2[C@H](C)C(O)C[C@@H]12 (stereo partly specified)	False
CCOC(=O)C1=C(C)N(Cc2ccccc2)C(=O)C1CC#N (stereo unspecified)	False
OC(c1ccccc1Br)(c1ccccc1Br)C(F)(F)F	False
CC1CC(C)(O)CC(C(O)CC2CC(=O)NC(=O)C2)C1=O (stereo unspecified) [RESACTIN A]	True

INPUT: Query: recorded result category for O=C(O)NC(c1ccccc1)C(NC(=O)c1ccccc1)c1ccccc1 (stereo unspecified) in this test
OUTPUT: False

INPUT: Also need CCCCCCCCCCCCCCCCOCC(Cl)CP(=O)(O)OP(=O)(O)OCC1OC(n2cnc3c(N)ncnc32)C(O)C1O (stereo unspecified) , thanks.
OUTPUT: False

INPUT: Thanks! And `COc1ccc2cc(C(=O)NCCCNC(=O)c3ccc4c(OC)c(OC)ccc4c3)ccc2c1OC` ?
OUTPUT: False

INPUT: Next compound: CC1(C)CCC(C)(C)C1C(=O)NC(O)C(=O)O (stereo unspecified)
OUTPUT: False

INPUT: Record: `C/C=C/[P+](c1ccccc1)(c1ccccc1)c1ccccc1`
OUTPUT: True

INPUT: Please answer likewise for `Cc1cc(N(CCC#N)CCC#N)ccc1C(/N=N/c1ccc(Cl)cc1)=N\NC(=O)c1ccccc1`
OUTPUT: False

INPUT: `Cn1c(=O)c2c(nc(C[N+]3([O-])CCOCC3)n2C)n(C)c1=O` , same question.
OUTPUT: False

###

system: LOX IMVI; test: NCI tumour cell line growth inhibition, 48 h
Active and inactive are the calls of the source. Rule as the data show it: active = GI50 up to about 1.1 µM and inactive = higher.
API: response.call in class 1 for active, class 0 for inactive

Previously resolved entries follow.
molecule	class
C[C@@H]1C[C@H](O)[C@]2(O)O[C@@H]3C[C@@]4(C=O)[C@@H](CC[C@@H]5[C@@H]4CC[C@]4(C)[C@@H](C6=CC(=O)OC6)CC[C@]54O)C[C@H]3O[C@@H]2O1 [CALOTROPIN]	class 1
COc1cc2ccc(C(=O)O)cc2cc1OC	class 0

Continue with the next molecule.
INPUT: Assay result, entry Cc1ccc(C2(C)CC/C(=N/N=C3/CCC(C)(c4ccc(C)c(C)c4)c4cc(C)c(C)cc43)c3cc(C)c(C)cc32)cc1C (stereo not drawn) — outcome?
OUTPUT: class 0

###

test system: 786-0; assay: NCI tumour cell line growth inhibition, 48 h
The source made the active and inactive calls. Rule as the data show it: active = GI50 up to about 1.1 µM and inactive = higher.
Answer each item with its documented GI50.

# example entries with known answers
compound	reportedResult
COC(=O)[C@@]1(Cc2ccc(O)cc2)C[C@@H]2Cc3ccccc3N2N1	> 100 µM (inactive)
O=C1/C(=C/c2ccccc2)CN(C(=O)Oc2ccccc2)C/C1=C\c1ccccc1	10.5 µM (inactive)
CCn1c(CCl)nc2c1C(=O)c1ccccc1C2=O	3.04 µM (inactive)
CCCCCCCCCCCCCCCCOCC(Cl)CP(=O)(O)OP(=O)(O)OCC1OC(n2cnc3c(N)ncnc32)C(O)C1O (stereo not given)	> 100 µM (inactive)

Please examine the following record next.
INPUT: Which GI50 is reported for this compound? CC(=O)C1CC2(c3ccccc3)C(=O)c3ccccc3N2O1 (stereo not given)
OUTPUT: > 100 µM (inactive)
